Source of measurements: patent US20210347873A1

# measured-on: mouse BLyS protein (mouse, UniProt Q9WU72 69-309)
# Sequence (Q9WU72 69-309): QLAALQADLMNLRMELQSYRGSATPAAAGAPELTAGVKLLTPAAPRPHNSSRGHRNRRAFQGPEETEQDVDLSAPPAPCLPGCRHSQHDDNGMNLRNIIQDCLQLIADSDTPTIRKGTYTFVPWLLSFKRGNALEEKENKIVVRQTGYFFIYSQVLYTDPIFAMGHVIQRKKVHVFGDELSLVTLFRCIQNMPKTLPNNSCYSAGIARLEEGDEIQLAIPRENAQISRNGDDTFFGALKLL
# test: cell-based or functional assay
measured-metric: mouse B lymphocyte proliferation (OD450 nm), antibody 0.16 nM
Give bare numbers, in OD450 nm.

Check out these entries, answers already filled in.
binder	units-symbol	reported
35E6F7C3 (antibody, V domains shown, Mouse hybridoma monoclonal antibody purified on Protein G) VH: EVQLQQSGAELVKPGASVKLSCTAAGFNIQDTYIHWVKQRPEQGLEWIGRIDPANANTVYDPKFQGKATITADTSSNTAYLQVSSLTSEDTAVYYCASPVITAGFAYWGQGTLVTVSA VL: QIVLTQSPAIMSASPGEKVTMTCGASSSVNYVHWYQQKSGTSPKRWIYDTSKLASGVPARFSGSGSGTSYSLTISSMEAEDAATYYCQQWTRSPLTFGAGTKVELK	OD450 nm	2410
93C6F10D3 (antibody, V domains shown, Mouse hybridoma monoclonal antibody purified on Protein G) VH: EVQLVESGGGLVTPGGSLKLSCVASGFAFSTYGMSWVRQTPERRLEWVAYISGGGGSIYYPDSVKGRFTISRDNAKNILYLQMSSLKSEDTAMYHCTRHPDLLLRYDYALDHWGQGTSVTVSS VL: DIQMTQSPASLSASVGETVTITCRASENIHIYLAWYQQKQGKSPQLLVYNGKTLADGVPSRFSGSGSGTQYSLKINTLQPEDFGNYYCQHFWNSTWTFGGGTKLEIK	OD450 nm	2540
78C11D2D12 (antibody, V domains shown, Mouse hybridoma monoclonal antibody purified on Protein G) VH: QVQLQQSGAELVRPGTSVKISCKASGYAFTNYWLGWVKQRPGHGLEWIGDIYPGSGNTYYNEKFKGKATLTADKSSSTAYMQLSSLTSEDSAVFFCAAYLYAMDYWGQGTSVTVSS VL: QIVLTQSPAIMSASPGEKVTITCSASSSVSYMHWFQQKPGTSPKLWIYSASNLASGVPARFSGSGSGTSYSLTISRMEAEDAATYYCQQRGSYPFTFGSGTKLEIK	OD450 nm	2410

// each binder listed below needs its mouse B lymphocyte proliferation (OD450 nm), antibody 0.16 nM
1. L9G7 (antibody, V domains shown, From a human naive scFv phage library; also called human BLyS antibody L9G7) VH: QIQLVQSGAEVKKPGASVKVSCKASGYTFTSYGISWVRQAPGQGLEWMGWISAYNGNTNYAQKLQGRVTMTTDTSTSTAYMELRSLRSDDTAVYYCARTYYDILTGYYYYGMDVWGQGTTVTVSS VL: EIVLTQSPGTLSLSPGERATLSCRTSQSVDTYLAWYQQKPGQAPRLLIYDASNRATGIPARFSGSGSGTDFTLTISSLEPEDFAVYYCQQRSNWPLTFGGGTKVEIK
2. 20D1B6E9E5 (antibody, V domains shown, Mouse hybridoma monoclonal antibody purified on Protein G) VH: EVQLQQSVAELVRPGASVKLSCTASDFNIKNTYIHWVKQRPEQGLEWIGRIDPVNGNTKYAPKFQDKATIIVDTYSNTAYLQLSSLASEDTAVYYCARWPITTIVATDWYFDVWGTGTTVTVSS VL: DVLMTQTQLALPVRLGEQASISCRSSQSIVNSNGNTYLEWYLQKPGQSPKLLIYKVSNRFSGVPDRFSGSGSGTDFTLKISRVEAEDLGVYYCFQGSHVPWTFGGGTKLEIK

Result:
[2260, 2120]
